PROCEDURE_TEXT: Pharmacokinetic study, IV administration in male CD-1 mice
Format: in vivo
CONDITION: male, CD-1, mouse, plasma, iv, 2 mg/kg, Mean, read-out: C0
Let's look at some compounds and their measured C0.
Give just the numeric value; ng/mL need not be written.

COc1ccc(-c2cccc(F)c2)cc1Nc1ncnc2[nH]nc(-c3cc[nH]n3)c12 [8168B]; 77.7

Given the entry COc1ccc(-c2ccc(F)cc2)cc1Nc1ncnc2[nH]nc(-c3cc[nH]n3)c12 [8168C] , report its measured C0.
786

* * *

PROCEDURE_TEXT: Pharmacokinetic study, IP administration in male CD-1 mice
Type: in vivo
CONDITION: male, CD-1, mouse, plasma, intraperitoneal, 2 mg/kg, IP 2.0 mg/kg, Mean, read-out: Oral T½ (converted)
QUANTITY: Half-life (T½) (min)
Give just the numeric value; min need not be written.

Given the entry COc1ccc(-c2ccc(F)cc2)cc1Nc1ncnc2[nH]nc(-c3cc[nH]n3)c12 [8168C] , report its measured Half-life (T½).
35.4

These entries and their values trace back to patent US20190119284A1.
